Assay details: Cmax in human plasma at 100 mg, iv by LC-MS/MS analysis
Assay type: ADME, organism-based
Set-up: dose 100 mg, route intravenous
*1 amine or outer side, *2 acyl side, *3 side chain or, on linkers, in order; H or OH if unused. Where a SMILES comes first, the peptide text is derived from it. Bridges are numbered along the chain shown (N, C = ends). [ ]: non-standard residue; d: D form. The star is where a group is joined. pTerphenylCO(4''-OnC5H11) = CCCCCOc1ccc(-c2ccc(-c3ccc(C(=O)*)cc3)cc2)cc1; Orn(4R-OH,5R-OH) = O=C([C@H](C[C@@H](O)[C@@H](O)N[*:3])N[*:1])[*:2]; hTyr(3S-OH,4S-OH) = N[C@H](C(=O)O)[C@H](O)[C@@H](O)c1ccc(O)cc1; Pro(3S-OH,4S-Me) = C[C@H]1CN[C@H](C(=O)O)[C@H]1O; Hyp = O=C(O)[C@@H]1C[C@@H](O)CN1
Measured parameter: Cmax (ng/mL)
// note: answer is a bare numeric in ng/mL

Data request: Please look up its Cmax: CCCCCOc1ccc(-c2ccc(-c3ccc(C(=O)N[C@H]4C[C@@H](O)[C@@H](O)NC(=O)[C@@H]5[C@@H](O)[C@@H](C)CN5C(=O)[C@H]([C@@H](C)O)NC(=O)[C@H]([C@H](O)[C@@H](O)c5ccc(O)cc5)NC(=O)[C@@H]5C[C@@H](O)CN5C(=O)[C@H]([C@@H](C)O)NC4=O)cc3)cc2)cc1 [ANIDULAFUNGIN] ({pTerphenylCO(4''-OnC5H11)}-[Orn(4R-OH,5R-OH)]T[Hyp][hTyr(3S-OH,4S-OH)]T[Pro(3S-OH,4S-Me)]; lactam 1-C)
Data returned: 3630

###

Assay details: Tmax in human plasma at 100 mg, iv by LC-MS/MS analysis
Type: ADME, organism-based
*1 amine or outer side, *2 acyl side, *3 side chain or, on linkers, in order; H or OH if unused. Where a SMILES comes first, the peptide text is derived from it. Bridges are numbered along the chain shown (N, C = ends). [ ]: non-standard residue; d: D form. The star is where a group is joined. pTerphenylCO(4''-OnC5H11) = CCCCCOc1ccc(-c2ccc(-c3ccc(C(=O)*)cc3)cc2)cc1; Orn(4R-OH,5R-OH) = O=C([C@H](C[C@@H](O)[C@@H](O)N[*:3])N[*:1])[*:2]; hTyr(3S-OH,4S-OH) = N[C@H](C(=O)O)[C@H](O)[C@@H](O)c1ccc(O)cc1; Pro(3S-OH,4S-Me) = C[C@H]1CN[C@H](C(=O)O)[C@H]1O; Hyp = O=C(O)[C@@H]1C[C@@H](O)CN1
Measured parameter: Tmax (h)
Quick reminder: number only, in h, skip the unit.

Data request: Fill in: Tmax of CCCCCOc1ccc(-c2ccc(-c3ccc(C(=O)N[C@H]4C[C@@H](O)[C@@H](O)NC(=O)[C@@H]5[C@@H](O)[C@@H](C)CN5C(=O)[C@H]([C@@H](C)O)NC(=O)[C@H]([C@H](O)[C@@H](O)c5ccc(O)cc5)NC(=O)[C@@H]5C[C@@H](O)CN5C(=O)[C@H]([C@@H](C)O)NC4=O)cc3)cc2)cc1 [ANIDULAFUNGIN] ({pTerphenylCO(4''-OnC5H11)}-[Orn(4R-OH,5R-OH)]T[Hyp][hTyr(3S-OH,4S-OH)]T[Pro(3S-OH,4S-Me)]; lactam 1-C) is ___
Data returned: 1.78
